Tested on: LXF-289
PROTOCOL DESCRIPTION: relative viability (nuclei count vs DMSO), 5 days (fraction); higher = more cells survive
MEASUREMENT PARAMETERS: first compound 15.81 µM
ASSAY METRIC: relative viability
Numbers only.

COMPOUND	TARGET DESC	NUMERIC READOUT
O=C(O)CCCCC(CCSCc1ccccc1)SCc1ccccc1 (stereo not drawn) [CPI-613] + CC(C)C[C@H](NC(=O)[C@H](Cc1ccccc1)NC(=O)c1cnccn1)B(O)O [Bortezomib] (partner 0.002 µM)	LXF-289	1.03

// for each compound below, give its relative viability
1. O=C(O)CCCCC(CCSCc1ccccc1)SCc1ccccc1 (stereo not drawn) [CPI-613] + Cc1cc(Nc2cc(N3CCN(C)CC3)nc(Sc3ccc(NC(=O)C4CC4)cc3)n2)n[nH]1 [Tozasertib] (partner 0.1 µM)
2. O=C(O)CCCCC(CCSCc1ccccc1)SCc1ccccc1 (stereo not drawn) [CPI-613] + Nc1nc2[nH]cc(CCc3ccc(C(=O)N[C@@H](CCC(=O)O)C(=O)O)cc3)c2c(=O)[nH]1 [Pemetrexed] (partner 0.2 µM)

OUTPUT:
[0.142, 0.828]

---

System: NCI-H1395
PROTOCOL DESCRIPTION: relative viability (nuclei count vs DMSO), 5 days (fraction); higher = more cells survive
MEASUREMENT PARAMETERS: first compound 0.005 µM
Exercise: state measured relative viability for each of the compounds provided.
Numbers only.

COMPOUND	relative viability
COc1cc2nccc(Oc3ccc(NC(=O)Nc4cc(C)on4)c(Cl)c3)c2cc1OC [Tivozanib] + CC1(C)CCC(c2ccc(Cl)cc2)=C(CN2CCN(c3ccc(C(=O)NS(=O)(=O)c4ccc(N[C@H](CCN5CCOCC5)CSc5ccccc5)c(S(=O)(=O)C(F)(F)F)c4)cc3)CC2)C1 [Navitoclax] (partner 0.5 µM)	1.14
COc1cc2nccc(Oc3ccc(NC(=O)Nc4cc(C)on4)c(Cl)c3)c2cc1OC [Tivozanib] + CC(=O)Nc1cccc(-n2c(=O)n(C3CC3)c(=O)c3c(Nc4ccc(I)cc4F)n(C)c(=O)c(C)c32)c1 [Trametinib] (partner 0.02 µM)	0.992
COc1cc2nccc(Oc3ccc(NC(=O)Nc4cc(C)on4)c(Cl)c3)c2cc1OC [Tivozanib] + COc1cccc2cc(-c3nc([C@H]4CC[C@H](C(=O)O)CC4)n4ncnc(N)c34)[nH]c12 [OSI-027] (partner 0.5 µM)	0.52
Nc1ccn([C@@H]2O[C@H](CO)[C@@H](O)[C@@H]2O)c(=O)n1 [Cytarabine] + Nc1nc2[nH]cc(CCc3ccc(C(=O)N[C@@H](CCC(=O)O)C(=O)O)cc3)c2c(=O)[nH]1 [Pemetrexed] (partner 0.2 µM)	0.798

// for each compound below, give its relative viability
1. Nc1ccn([C@@H]2O[C@H](CO)[C@@H](O)[C@@H]2O)c(=O)n1 [Cytarabine] + C[C@]1(O)C[C@@H](c2nc(-c3ccc4ccc(-c5ccccc5)nc4c3)c3c(N)nccn32)C1 [Linsitinib] (partner 1 µM)
2. COc1cc2nccc(Oc3ccc(NC(=O)Nc4cc(C)on4)c(Cl)c3)c2cc1OC [Tivozanib] + N=C(N)NC(=N)NCCc1ccccc1 [Phenformin] (partner 250 µM)
3. Nc1ccn([C@@H]2O[C@H](CO)[C@@H](O)[C@@H]2O)c(=O)n1 [Cytarabine] + CC1(C)CCC(c2ccc(Cl)cc2)=C(CN2CCN(c3ccc(C(=O)NS(=O)(=O)c4ccc(N[C@H](CCN5CCOCC5)CSc5ccccc5)c(S(=O)(=O)C(F)(F)F)c4)cc3)CC2)C1 [Navitoclax] (partner 0.5 µM)
4. Nc1ccn([C@@H]2O[C@H](CO)[C@@H](O)[C@@H]2O)c(=O)n1 [Cytarabine] + COc1cc2c(Oc3ccc(NC(=O)C4(C(=O)Nc5ccc(F)cc5)CC4)cc3F)ccnc2cc1OCCCN1CCOCC1 [Foretinib] (partner 0.25 µM)

OUTPUT:
0.89
0.357
1.2
0.917
